Hello, the source for this data is the Human Domainome abundance scans (Beltran et al. 2025), in case you need it.

Readings of abundance fitness for the listed variants
B1: Far upstream element-binding protein 1, residues 184 to 257; numbered along this chain, Q96AE4 (parent)
chain: GNAVQEIMIPASKAGLVIGKGGETIKQLQERAGVKMVMIQDGPQNTGADKPLRITGDPYKVQQAKEMVLELIRD

Variants of: B1
Experiment: abundance fitness (aPCA) (normalised: wild type 0, dead -1); higher = more abundant; growth selection in yeast, the domain comes from the species named
Conditions: Homo sapiens

{"MUT": "D41A", "abundance fitness": -0.077}
{"MUT": "K13V", "abundance fitness": -0.091}
{"MUT": "T46Q", "abundance fitness": -0.022}
{"MUT": "G47S", "abundance fitness": -0.001}
{"MUT": "I72R", "abundance fitness": -0.498}
{"MUT": "P51N", "abundance fitness": -0.049}
{"MUT": "V61S", "abundance fitness": -0.427}
{"MUT": "T24M", "abundance fitness": 0.002}
{"MUT": "I39K", "abundance fitness": 0}
{"MUT": "I39Y", "abundance fitness": -0.08}
{"MUT": "V37A", "abundance fitness": -0.054}
{"MUT": "G56D", "abundance fitness": -0.803}
{"MUT": "E70L", "abundance fitness": -0.209}
{"MUT": "R73C", "abundance fitness": -0.002}
{"MUT": "Q44S", "abundance fitness": -0.04}
{"MUT": "R31P", "abundance fitness": -0.484}
{"MUT": "K20Y", "abundance fitness": -0.023}
{"MUT": "L16S", "abundance fitness": -0.122}
{"MUT": "P51Y", "abundance fitness": -0.059}
{"MUT": "K65D", "abundance fitness": -0.577}
{"MUT": "G22A", "abundance fitness": 0.003}
{"MUT": "I39N", "abundance fitness": 0.014}
{"MUT": "Q63C", "abundance fitness": 0.013}
{"MUT": "I72T", "abundance fitness": -0.072}
{"MUT": "G33M", "abundance fitness": -0.137}
{"MUT": "M67F", "abundance fitness": -0.117}
{"MUT": "L69E", "abundance fitness": 0.011}
{"MUT": "K13G", "abundance fitness": -0.231}
{"MUT": "L71T", "abundance fitness": -0.066}
{"MUT": "M36H", "abundance fitness": -0.81}
{"MUT": "D57M", "abundance fitness": -0.138}
{"MUT": "M38R", "abundance fitness": -0.444}
{"MUT": "Q40T", "abundance fitness": -0.059}
{"MUT": "I39C", "abundance fitness": -0.051}
{"MUT": "M38D", "abundance fitness": -0.392}
{"MUT": "P43E", "abundance fitness": -0.01}
